- Test system: A2058 (human melanoma) cells
- experimentSummary: Anti-proliferative activity (Resazurin Blue, 72 hours)
- Type: cell-based
- conditionSummary: mean ± S.E.M., cisplatin basis; listed as cisplatin
pIC50: −log10 of the molar value.
reportedEndpoint: pIC50

Prompt: Sample N.N.[Cl][Pt][Cl] [Cisplatin, cisplatin, reference compound] — what was its pIC50?
Completion: ~5.10

====

- Tested on: 4T1.2-neu (murine breast cancer cells)
- experimentSummary: Anti-proliferative activity (Resazurin Blue, 72 hours)
- Assay type: cell-based
- conditionSummary: mean ± S.E.M., cisplatin basis; listed as cisplatin
pIC50: −log10 of the molar value.
reportedEndpoint: pIC50

Prompt: Param item = N.N.[Cl][Pt][Cl] [Cisplatin, cisplatin, reference compound] ; retrieve measured pIC50.
Completion: ~5.10
